# tgt: Human MMP-2 catalytic domain (Homo sapiens, UniProt P08253, DEL222-396)
# Construct: Human MMP-2 catalytic domain (residues 110-221, 397-455); made in house
# Sequence (P08253 with tags, fused parts or gaps DEL222-396 limits assumed): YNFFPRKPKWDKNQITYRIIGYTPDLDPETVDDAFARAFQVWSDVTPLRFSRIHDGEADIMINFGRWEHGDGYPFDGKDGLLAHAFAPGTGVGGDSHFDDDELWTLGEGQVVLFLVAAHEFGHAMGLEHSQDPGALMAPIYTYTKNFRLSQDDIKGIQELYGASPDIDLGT
# experimentDescription: Fluorometric MMP-2 inhibition assay (MTS), catalytic domain
# Assay type: biochemical
# protocolConditions: Table 1, acids vs hydroxamic acids, catalytic fragment
# Description: In vitro MMP-2 activity was then measured, using a fluorometric assay in a 384 well format. Human MMP-2 catalytic domain (residues 110-221, 397-455) (Feng et al., [2000]) was expressed in E. coli in form of inclusion bodies. The protein was refolded and then purified by means of Ni-NTA affinity and anion exchange chromatography. […] After 1 h incubation at 37°C the fluorescence was detected using a Wallac 1420 Victor2 microplate reader at 320 nm/405 nm Ex/Em wavelength. […]
pIC50: −log10 of the molar value.
experimentalEndpoint: pIC50

Guide cases for pIC50, answers given:
{"molecule": "O=C(NO)c1csc(CN(Cc2cccc(Cl)c2)Cc2cccc(C(F)(F)F)c2)n1 [AMRI-102H]", "experimentalEndpoint": "pIC50", "experimentalValue": 4.96}
{"molecule": "O=C(O)c1csc(CN(Cc2cccc(Cl)c2)Cc2cccc(C(F)(F)F)c2)n1 [AMRI-102A]", "experimentalEndpoint": "pIC50", "experimentalValue": 5.21}
{"molecule": "O=C(O)c1csc(CN(Cc2ccc(F)cc2)Cc2ccc(OCc3ccccc3)cc2)n1 [MMPI-1157]", "experimentalEndpoint": "pIC50", "experimentalValue": 5.47}
{"molecule": "O=C(NO)c1csc(CN(CCC(c2ccccc2)c2ccccc2)Cc2ccccc2F)n1 [AMRI-103H]", "experimentalEndpoint": "pIC50", "experimentalValue": 4.75}

P: O=C(NO)c1csc(CN(Cc2ccc(F)cc2)Cc2ccc(OCc3ccccc3)cc2)n1 [AMRI-101H]
Q: O=C(O)c1csc(CN(CCC(c2ccccc2)c2ccccc2)Cc2ccccc2F)n1 [AMRI-103A]
Given the listed items, does P or Q have the lesser reported pIC50? Answer by quoting the chosen item's label. P
(P: 4.92, Q: 5.12)
